Data credit: the supplement of paper PMC9170038

tested on: MS2 coat protein; assay: apparent KD of MS2 coat protein; designed switch direction (-1 OFF switch, 1 ON switch): -1; higher = weaker reporter binding; details: input ligand: FMN 200 uM
Catalogue of sequences with associated apparent KD of MS2 coat protein
PROPERTY: apparent KD of MS2 coat protein

[
  {
    "PRIMARY_SEQUENCE": "UGUAAGGCAGAGGAUAUGGUUACUAGACGAGUACCAGAAGGCUGCACAUGAGGAUCACCCAUGUGAAAUCCACU [Eternabot (L1) Solution 72] (Eterna round: R97, puzzle: Exclusion 6)",
    "PROPERTY": "apparent KD of MS2 coat protein",
    "ASSAY_VALUE": "0.0807 µM"
  },
  {
    "PRIMARY_SEQUENCE": "AACCUGAGGCAAAGCUUUAGGUGUACAUGAGGAUCACCCAUGUAGGAUAUGGUAGGCAAAGCUUACCAGAAGGACAUUUAGGUU [Mat - Exclusion NG 3 - Mod of JL - D44] (Eterna round: R96, puzzle: Exclusion NG 3)",
    "PROPERTY": "apparent KD of MS2 coat protein",
    "ASSAY_VALUE": "0.0816 µM"
  },
  {
    "PRIMARY_SEQUENCE": "CUAGCGGGUGUAGGAUAUCGGACUGUUUCAGUCUGAGAAGGACAUGAGGAUCACCCAUGUAUUGCUGCGUGAGUAGCACGCUAG [JL ENG1 3.98] (Eterna round: R96, puzzle: Exclusion NG 1)",
    "PROPERTY": "apparent KD of MS2 coat protein",
    "ASSAY_VALUE": "0.0468 µM"
  },
  {
    "PRIMARY_SEQUENCE": "UUAUUGUAUGUAGGAUAUGCGUAUUAUUAUUGGGCAGAAGGACAUGAGGAUCACCCAUGUAUGUUGUUGUUAUAUAUUAUAUAU [Title] (Eterna round: R96, puzzle: Exclusion NG 1)",
    "PROPERTY": "apparent KD of MS2 coat protein",
    "ASSAY_VALUE": "0.061 µM"
  },
  {
    "PRIMARY_SEQUENCE": "GGGCCCGGUGUGAGGAUAUGCCCGGGUAAACCCGGGUAGAAGGCACAUGAGGAUCACCCAUGUAAGCCGGGCCC [-43, -40.9 kcal, A 23%, 5cbis-0] (Eterna round: R97, puzzle: Brourd's mod of Exclusion 4)",
    "PROPERTY": "apparent KD of MS2 coat protein",
    "ASSAY_VALUE": "0.0128 µM"
  }
]

* * *

system: K4 kissing-loop RNA reporter; assay: apparent KD of K4 kissing-loop reporter; higher = weaker reporter binding; conditions: Eterna round: R107; input ligand: theophylline 20 uM;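 note: bound reporter read as fluorescence of individual clusters on recovered sequencing chips by microscopy, with normalized cluster intensities fitted with a binding model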
Label n if apparent KD of K4 kissing-loop reporter falls below 300 nM; label y in every other case.

[
  {
    "PRIMARY_SEQUENCE": "CAUAAAAGGUGGAAGACGAAUCGGUGUCGCCGAGGACCGGUACGGCCGCCACUCGGUCAUCAAAUCCUUCCCGAGUGAUGUUCGA [theeternabot_sameState_KL_Trp_A_5]",
    "CATEGORY_LABEL": "y"
  },
  {
    "PRIMARY_SEQUENCE": "UCGGAGGGAGCGGCCGCCACUGUAUUACCUCGACGAACGCCGGUUUUCAUGAAGUGAUGUUUCGCCAGGACCGGGCUAAUCUGAG [theeternabot_exclusion_KL_Trp_B_46]",
    "CATEGORY_LABEL": "n"
  },
  {
    "PRIMARY_SEQUENCE": "AUACGUUUCAGAGGAUAUCGGAGGAGAGUGAUGUUCUCCCAUAGCCCAGUGAUGUUGGAAGCUAUCCGAGAAGGCUGUGGGCGUA [Same State FMN B GF 15]",
    "CATEGORY_LABEL": "n"
  },
  {
    "PRIMARY_SEQUENCE": "GGUUUUAACCGCAGUGAUGUUGCGUUGAAACGAGGACCGGUACGGCCGCCACUCGAAAAGAAGCGGCCAAAUUAAAAUCGUAAAG [Exclusion Tryptophan A GF 23]",
    "CATEGORY_LABEL": "n"
  },
  {
    "PRIMARY_SEQUENCE": "ACUAUCGAAAGAUAGUUCCCAGAGCUAGUAGAGGAUAUCUGGAAACAGAGAAGGCUACAAGAGUGAUGUUCUUCUAGCUUUGGGA",
    "CATEGORY_LABEL": "y"
  },
  {
    "PRIMARY_SEQUENCE": "GCACACUAGUAAACUAGUGUGUUAACUGAAGGAGCGUGAAUAAUCACAGGUAGGUCGCAGUUUGUCAGUGAUGUUGACACGAGUG [Arg A SS t2]",
    "CATEGORY_LABEL": "n"
  },
  {
    "PRIMARY_SEQUENCE": "UUAUAUUUUAUAUUUAGUAGAGCUCUAGCUCGAGGACCGGUACGGCCGCCACUCGAGUGAUGUUCGAGUGGAAGAGCUCUACAUU [AK3.1 EXC Tryptophan A]",
    "CATEGORY_LABEL": "n"
  },
  {
    "PRIMARY_SEQUENCE": "GAGGAUUGAACGGCCGCCACUGCGCGCAGCUGCAAUCGAGUGAUGUUCCAUCAGUUGUCCAGUUCCAGGACCGGGUUCCGAUGCC [theeternabot_exclusion_KL_Trp_B_12]",
    "CATEGORY_LABEL": "y"
  },
  {
    "PRIMARY_SEQUENCE": "GGAUCUGCCAGUGAUGUUGGUUAAUAUAUCAAGGAUAUGACGAAAGUCAGAAGGUGAAAGACUGGACAAAGUCCAGUCGGAUCCA [KL-SSFMN-A20]",
    "CATEGORY_LABEL": "y"
  },
  {
    "PRIMARY_SEQUENCE": "AAAAUUAAGGCCGAAUAAACUUAUUUCAUACGAGGACCGGUACGGCCGCCACUCGAGUCAAGUGAUGUUUGACUAUCUAUUAUUA [JR_ExcTryptoA_Sub009]",
    "CATEGORY_LABEL": "n"
  },
  {
    "PRIMARY_SEQUENCE": "AUGGUUGUCGUAGGAUAUGUAGGAUAUUCUAAAAUAUGAAGUGAUGUUUCUAUAAUAAGAAGAAGGACAGAAGGACGAUAACCAC [FmnBS 1 - SaraBot transfer #DoubleAptamer]",
    "CATEGORY_LABEL": "n"
  },
  {
    "PRIMARY_SEQUENCE": "ACGUAGUUCUAGGAUACCAGCCAAGGAGGGUAGGACAAAAGUCCUGUAGCCAGUGAUGUUGGCCCUUGGCAGCCUAGAACUACGA [Omei KL Theo B Exc B v3]",
    "CATEGORY_LABEL": "n"
  },
  {
    "PRIMARY_SEQUENCE": "AUUAUAAAGUCGGCCGCCACUGAGAGUAGUGAUGUUACUCUAUUCCUUUAGAUAUUAUAUUUUAUCAGGACCGGGACAUCAGAUU [JR_ExcTryptoB_Sub019]",
    "CATEGORY_LABEL": "n"
  },
  {
    "PRIMARY_SEQUENCE": "AAAUUUAAUAUAUUUAAUUAAUUAUGUGAUACCAGACAUUAAUAAGUCCCUUGGCAGCACAAUGCAGUGAUGUUGCAUAUAAUAA [JR_SSTheophyA_Sub011]",
    "CATEGORY_LABEL": "n"
  },
  {
    "PRIMARY_SEQUENCE": "GCCUGUGCGCGAAGGAGCGCCGUGACAGGUUACUGCCUUGGGCAGUGAUGUUGCUCAAUCUGGCAGGUAGGUCGCGUGCACAGGC",
    "CATEGORY_LABEL": "n"
  },
  {
    "PRIMARY_SEQUENCE": "AGUGAUGUUGUGUUAUGUUUGGGAAGUGAUCGAGGACCGGUACGGCCGCCACUCGAGUGAUGAGUGAGUGAUGUUUGUUUAGGGA [whbob_SS_Tryp_A_m9]",
    "CATEGORY_LABEL": "y"
  },
  {
    "PRIMARY_SEQUENCE": "AUCGUUGUCUGAGGAUAUCGUUUUACUGUAGUGAUGUUACAGAAAAUUCACAUUAUAAUUUCUAUUCGAGAAGGCAGACUACGUA [JR_ExcFMNB_Sub015]",
    "CATEGORY_LABEL": "n"
  },
  {
    "PRIMARY_SEQUENCE": "UUCCUCAUGGUAGUGAUGUUGCCGCCCGAUACCAGUCGACGUAUUGACCCUUGGCAGCGGAUCAAGUCCGAUUAAUUUUUUGGUC [theeternabot_sameState_KL_Theo_A_5]",
    "CATEGORY_LABEL": "y"
  },
  {
    "PRIMARY_SEQUENCE": "UGCUUUAUCAGAAGGAGCGGGUUGUUCAUAAUAAUAAUCAGUGAUGUUGAUAUAUGAUGAUUCCAGGUAGGUCGCUGAUAUAGCU [KL-XARG-B2]",
    "CATEGORY_LABEL": "n"
  },
  {
    "PRIMARY_SEQUENCE": "CAUCACGCAAUCACGGAUGCAAGCAUUGAUACCAGAACCGAUUAUUUCCCUUGGCAGCAACACGGAGUGAUGUUCCUAGCAUAUA [theeternabot_sameState_KL_Theo_A_21]",
    "CATEGORY_LABEL": "n"
  },
  {
    "PRIMARY_SEQUENCE": "AAUAACUUGCAGUGAUGUUGCAAGAAAUCUCAGGAUAUCAGGAAACUGAGAAGGGAGUAUCCUGAGUAAACAUCACAUCUUAGGA [KL-SSFMN-A8]",
    "CATEGORY_LABEL": "y"
  },
  {
    "PRIMARY_SEQUENCE": "GGUAUCCAGUACCAUUGCGUUAAAACAGAAGGAGCGAGAAUAGACUCAGGUAGGUCGCUGUUUAUAGUCGAGUGAUGUUCGAAUC [Same State Arginine A GF 14]",
    "CATEGORY_LABEL": "y"
  },
  {
    "PRIMARY_SEQUENCE": "UGUGUUGUUUUGAUGUUUGUUGUAAAAUGGCAGGAUAUCGUAGAGGCGAGAAGGGCUUUUAUGCGUUAUGAGUGAUGUUUGUAGG [zvvczmullin]",
    "CATEGORY_LABEL": "y"
  }
]
